Measured IC50, listed per entry for reference.
tested on: COLO-678; test: cells; assay type: functional, cell-based; settings: Homo sapiens
Description: SANGER: Inhibition of human COLO-678 cell growth in a cell viability assay.
Reported Endpoint: IC50

- Structure Smiles: "C/C(O)=C(\\C#N)C(=O)Nc1cc(Br)ccc1Br"
  Test Result: "> 16 µM"
- Structure Smiles: "CC[C@]1(O)C[C@@H]2CN(CCc3c([nH]c4ccccc34)[C@@](C(=O)OC)(c3cc4c(cc3OC)N(C)[C@H]3[C@@](O)(C(=O)OC)[C@H](OC(C)=O)[C@]5(CC)C=CCN6CC[C@]43[C@@H]65)C2)C1"
  Test Result: "> 0.1 µM"
- Structure Smiles: "C/C=C(/C)C(=O)O[C@H]1C(C)=C2[C@H]([C@@H]1OC(=O)CCCCCCC)[C@@](C)(OC(C)=O)C[C@H](OC(=O)CCC)[C@@]1(O)[C@H]2OC(=O)[C@@]1(C)O"
  Test Result: "> 0.512 µM"
- Structure Smiles: "CC(=O)c1c(C)c2cnc(Nc3ccc(N4CCNCC4)cn3)nc2n(C2CCCC2)c1=O"
  Test Result: "> 4 µM"
- Structure Smiles: "C[C@]12O[C@H](C[C@]1(O)CO)n1c3ccccc3c3c4c(c5c6ccccc6n2c5c31)CNC4=O"
  Test Result: "> 2 µM"
- Structure Smiles: "Fc1cc(-c2cc[nH]/c(=N/c3ccc(-n4cnc(N5CCOCC5)n4)cc3)n2)cc(N2CCOCC2)c1"
  Test Result: "3.65 µM"
- Structure Smiles: "CC(C)=CC[C@@H](O)C1=CC(=O)c2c(O)ccc(O)c2C1=O"
  Test Result: "1.63 µM"

----------
tested on: 8-MG-BA; test: cells; assay type: functional, cell-based; details: Homo sapiens;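 further: growth inhibition of 8-MG-BA cells, read out with a cell viability assay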
Description: SANGER: Inhibition of human 8-MG-BA cell growth in a cell viability assay.

- Structure Smiles: "Fc1cc(-c2cc[nH]/c(=N/c3ccc(-n4cnc(N5CCOCC5)n4)cc3)n2)cc(N2CCOCC2)c1"
  Target System: "8-MG-BA"
  Readout Qualifier: "="
  IC50 [µM]: 0.116
- Structure Smiles: "NC(=O)c1ncn([C@@H]2O[C@H](COP(=O)(O)O)[C@@H](O)[C@H]2O)c1N"
  Target System: "8-MG-BA"
  Readout Qualifier: ">"
  IC50 [µM]: 2000
- Structure Smiles: "Cc1nc(Nc2ncc(C(=O)Nc3c(C)cccc3Cl)s2)cc(N2CCN(CCO)CC2)n1"
  Target System: "8-MG-BA"
  Readout Qualifier: "="
  IC50 [µM]: 0.155
- Structure Smiles: "C[C@]12O[C@H](C[C@]1(O)CO)n1c3ccccc3c3c4c(c5c6ccccc6n2c5c31)CNC4=O"
  Target System: "8-MG-BA"
  Readout Qualifier: "="
  IC50 [µM]: 0.124

----------
system: CP67-MEL; experiment: SANGER: Inhibition of human CP67-MEL cell growth in a cell viability assay.; type: functional, cell-based
pIC50: −log10 of the molar value.
Reported Endpoint: pIC50

- Structure Smiles: "Cc1n[nH]c2ccc(-c3cncc(OC[C@@H](N)Cc4c[nH]c5ccccc45)c3)cc12"
  Reported Endpoint: "pIC50"
  Test Result: 6.50
- Structure Smiles: "Cc1nc(Nc2ncc(C(=O)Nc3c(C)cccc3Cl)s2)cc(N2CCN(CCO)CC2)n1"
  Reported Endpoint: "pIC50"
  Test Result: 6.69

----------
tested on: SCC-25; assay: cells; type: functional, cell-based; settings: Homo sapiens;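 further: growth inhibition of SCC-25 cells, measured with a cell viability assay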
Description: SANGER: Inhibition of human SCC-25 cell growth in a cell viability assay.
pIC50: −log10 of the molar value.
Measured pIC50, listed per entry for reference.
Reported Endpoint: pIC50

- Compound: "CC(O)(CS(=O)(=O)c1ccc(F)cc1)C(=O)Nc1ccc(C#N)c(C(F)(F)F)c1 (centres undefined) [BICALUTAMIDE]"
  Reported Endpoint: "pIC50"
  Test Result: "< 5.99"
- Compound: "CC[C@@]1(O)C(=O)OCc2c1cc1n(c2=O)Cc2cc3ccccc3nc2-1"
  Reported Endpoint: "pIC50"
  Test Result: 7.25
- Compound: "COc1cc(Nc2c(C#N)cnc3cc(OCCCN4CCN(C)CC4)c(OC)cc23)c(Cl)cc1Cl"
  Reported Endpoint: "pIC50"
  Test Result: "< 5.70"
- Compound: "O=c1[nH]c2ccccc2n1C1CCN(Cc2ccc(-c3nc4cc5[nH]cnc5cc4nc3-c3ccccc3)cc2)CC1"
  Reported Endpoint: "pIC50"
  Test Result: "< 5.59"

Data origin: ChEMBL document CHEMBL1201861
